Attribution: patent US10183027B2

Test system: HeLa cells
Assay: MTT dark cytotoxicity in HeLa cells (PtGdL study)
Format: cell-based, human
Conditions: 24 hours
pIC50: −log10 of the molar value.

| compound | tested on | pIC50 |
| --- | --- | --- |
| O.O=C([O-])CN1CCN(CC(=O)[O-])CCN(Cc2cc(C#Cc3ccc(NC(=O)c4ccncc4)cc3)ccn2)CCN(CC(=O)[O-])CC1.[Gd+3] [GdL] | HeLa cells | < 3.70 |

----------
System: WPMY-1 cells
Assay: MTT dark cytotoxicity in WPMY-1 cells (PtGdL study)
Assay type: cell-based, human
Settings: 24 hours

| smiles code | units | sign | IC50 |
| --- | --- | --- | --- |
| O.O=C([O-])CN1CCN(CC(=O)[O-])CCN(Cc2cc(C#Cc3ccc(NC(=O)c4ccncc4)cc3)ccn2)CCN(CC(=O)[O-])CC1.[Gd+3] | µM | > | 200 |
| O.O=[N+]([O-])[O-].[Gd+3].[NH3+][Pt-2]([NH3+])([Cl])[n+]1ccc(C(=O)Nc2ccc(C#Cc3ccnc(CN4CCN(CC(=O)[O-])CCN(CC(=O)[O-])CCN(CC(=O)[O-])CC4)c3)cc2)cc1 | µM | = | 43.9 |

----------
System: A549
Test: Dark cytotoxicity of Eu(III) complexes on A549 cells
Assay type: cell-based
Details: mean ± SD of three independent experiments
measured parameter: IC50 (µM)

| compound | units | number |
| --- | --- | --- |
| O.O=[N+]([O-])[O-].[Eu+3].[NH3+][Pt-2]([NH3+])([Cl])[n+]1ccc(C(=O)Nc2ccc(C#Cc3ccnc(CN4CCN(CC(=O)[O-])CCN(CC(=O)[O-])CCN(CC(=O)[O-])CC4)c3)cc2)cc1 [PtEuL] | µM | 49.5 |
